cytotoxicity at 70.5 h for assorted compounds
- TEST_SUMMARY: Human HepG2 cell viability assay in 384 well format
- Assay type: toxicity, cell-based
- Set-up: dose 125 nL, time 70.5 hour; concentration not given beside the values
- CONDITION_NOTES: HepG2 cells, read-out: Inhibition
Write it as a number; the unit % goes unstated.

Completed entries (count: 8):
Cc1cc(C)n(CC2CCCCN2CCCS(=O)(=O)N(C)C)n1 (stereo not drawn) ... 1.93
CNC(=O)C1(N2CCC[C@H]2C(=O)NC2CC2)CCCCC1 ... -3.89
O=C(CNc1ccc(OC2CCOC2)cc1)NCc1ccco1 (stereo not drawn) ... -21.4
COc1ccc(C(=O)N2CCCC3(CCCC(=O)N3C)C2)cc1 (stereo not drawn) ... -6.78
CN(C)CCN1CCOCC2(CCCN(C(=O)c3ccccn3)C2)C1 (stereo not drawn) ... 0.371
OCCC[C@@H]1CN(c2ncc(Cl)cc2Cl)CC[C@@H]1N1CCOCC1 ... 3.21
CC(C)CN1CCC2(C1)CN(c1ncccn1)C2 ... -11.9
O=S(=O)(C/C=C/c1ccccc1)Cc1nc(C2CC2)no1 ... -11.4

Dear colleague, I am looking for the recorded cytotoxicity at 70.5 h of the following compound: Cc1noc(C)c1CNC(=O)N1CCN(Cc2cscn2)CC1
-5.24

Fill in the blank: the reported cytotoxicity at 70.5 h of Fc1ccc(-c2nccnc2C2CCCNC2)cc1 (stereo not drawn) is ____.
-3.79

Give the measured cytotoxicity at 70.5 h of COc1ccc(OCCN2CCOCS2(=O)=O)cc1 .
-6.02

Give the measured cytotoxicity at 70.5 h of CCC(=O)N1CCC2(CC1)C(c1cccnc1)CC(=O)N2CCOC (stereo not drawn) .
1.53
